Listing of entries alongside the reported switch fluorescence ratio.
# Test system: ATP;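 note: ATP exposure 15 min at 22 °C before imaging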
# EXPERIMENTAL_DETAILS: switch fluorescence ratio, 500 uM ATP over buffer (Cy3 cluster intensity, sum of 5 cycles each) (fold (ratio)); higher = stronger signal-on switching upon ATP binding; sequences stand for … in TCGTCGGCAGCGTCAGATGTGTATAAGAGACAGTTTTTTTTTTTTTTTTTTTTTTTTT…TC
# RUN_PARAMETERS: aptamer strand: ATP DNA aptamer (quencher-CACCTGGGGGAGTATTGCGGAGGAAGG + anchor), 100 nM annealed; ATP concentration: 500 uM

{"MONOMER_SEQUENCE": "GTGATATAAG", "switch fluorescence ratio": 0.986}
{"MONOMER_SEQUENCE": "ATGGATACGG", "switch fluorescence ratio": 1.02}
{"MONOMER_SEQUENCE": "ATGTATCATG", "switch fluorescence ratio": 1}
{"MONOMER_SEQUENCE": "CATAAGTGGG", "switch fluorescence ratio": 0.973}
{"MONOMER_SEQUENCE": "TGATTTTAGA", "switch fluorescence ratio": 0.974}
{"MONOMER_SEQUENCE": "GAGATAGAGG", "switch fluorescence ratio": 1.01}
{"MONOMER_SEQUENCE": "TCGAAGGGCG", "switch fluorescence ratio": 1.02}
{"MONOMER_SEQUENCE": "GTTAACTCCA", "switch fluorescence ratio": 1.02}
{"MONOMER_SEQUENCE": "TGAGCACCGT", "switch fluorescence ratio": 1}
{"MONOMER_SEQUENCE": "TATGTTGCAA", "switch fluorescence ratio": 1.01}
{"MONOMER_SEQUENCE": "TTCGATTTGC", "switch fluorescence ratio": 1.01}
{"MONOMER_SEQUENCE": "CGATATAGTC", "switch fluorescence ratio": 0.993}
{"MONOMER_SEQUENCE": "ACGGCTCAT", "switch fluorescence ratio": 1.01}
{"MONOMER_SEQUENCE": "GGGTGACATT", "switch fluorescence ratio": 0.997}
{"MONOMER_SEQUENCE": "TAGGGAAATA", "switch fluorescence ratio": 1}
{"MONOMER_SEQUENCE": "TGGGAACTTG", "switch fluorescence ratio": 0.991}
{"MONOMER_SEQUENCE": "GGTTGTTTCT", "switch fluorescence ratio": 0.997}
{"MONOMER_SEQUENCE": "GTGATTCTTG", "switch fluorescence ratio": 0.974}
{"MONOMER_SEQUENCE": "GCTGTGGGTG", "switch fluorescence ratio": 1}
{"MONOMER_SEQUENCE": "GGCGAAGTCG", "switch fluorescence ratio": 0.999}

* * *

# Tested on: ATP;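 note: ATP exposure 15 min at 22 °C before imaging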
# EXPERIMENTAL_DETAILS: switch fluorescence ratio, 500 uM ATP over buffer (Cy3 cluster intensity, sum of 5 cycles each) (fold (ratio)); higher = stronger signal-on switching upon ATP binding; sequences stand for … in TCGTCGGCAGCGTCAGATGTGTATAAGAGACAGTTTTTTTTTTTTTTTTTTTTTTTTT…TC
# RUN_PARAMETERS: aptamer strand: ATP DNA aptamer (quencher-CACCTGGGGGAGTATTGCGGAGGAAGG + anchor), 100 nM annealed; ATP concentration: 500 uM
PROPERTY_MEASURED: switch fluorescence ratio

{"MONOMER_SEQUENCE": "GAGGGGTATC", "MEASURED_VALUE": 0.96}
{"MONOMER_SEQUENCE": "AATAAGGGA", "MEASURED_VALUE": 1.03}
{"MONOMER_SEQUENCE": "CTTCTATGTT", "MEASURED_VALUE": 0.984}
{"MONOMER_SEQUENCE": "GGGTCTCCAT", "MEASURED_VALUE": 1.02}
{"MONOMER_SEQUENCE": "ACCTAACAGG", "MEASURED_VALUE": 0.973}
{"MONOMER_SEQUENCE": "TCAATCCTTG", "MEASURED_VALUE": 0.999}
{"MONOMER_SEQUENCE": "CCGGTGTGAG", "MEASURED_VALUE": 1.04}
{"MONOMER_SEQUENCE": "TTCCATTTGT", "MEASURED_VALUE": 1.03}
{"MONOMER_SEQUENCE": "AGCGGCACAC", "MEASURED_VALUE": 1.07}
{"MONOMER_SEQUENCE": "TAGGTTCTAA", "MEASURED_VALUE": 1.06}
{"MONOMER_SEQUENCE": "ACCAGTCTCG", "MEASURED_VALUE": 1.07}
{"MONOMER_SEQUENCE": "TTCTGATTGC", "MEASURED_VALUE": 0.984}
{"MONOMER_SEQUENCE": "TATAGAAGCG", "MEASURED_VALUE": 1.01}
{"MONOMER_SEQUENCE": "CGAAGATGGG", "MEASURED_VALUE": 0.981}
{"MONOMER_SEQUENCE": "GCCATCAAGA", "MEASURED_VALUE": 0.995}
{"MONOMER_SEQUENCE": "ATACTGAGGA", "MEASURED_VALUE": 1.05}
{"MONOMER_SEQUENCE": "TTGTGGGGGT", "MEASURED_VALUE": 0.998}
{"MONOMER_SEQUENCE": "GGAGGAGATA", "MEASURED_VALUE": 0.995}
{"MONOMER_SEQUENCE": "TTCACAAGGT", "MEASURED_VALUE": 1}

* * *

# System: ATP;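 note: ATP exposure 15 min at 22 °C before imaging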
# EXPERIMENTAL_DETAILS: switch fluorescence ratio, 500 uM ATP over buffer (Cy3 cluster intensity, sum of 5 cycles each) (fold (ratio)); higher = stronger signal-on switching upon ATP binding; sequences stand for … in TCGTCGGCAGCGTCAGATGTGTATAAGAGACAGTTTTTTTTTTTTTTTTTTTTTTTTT…TC
# RUN_PARAMETERS: aptamer strand: ATP DNA aptamer (quencher-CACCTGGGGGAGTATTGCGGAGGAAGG + anchor), 100 nM annealed; ATP concentration: 500 uM
Listing of entries alongside the reported switch fluorescence ratio.

{"MONOMER_SEQUENCE": "TTCGAAATT", "SYSTEM_NAME": "ATP", "switch fluorescence ratio": 1.02}
{"MONOMER_SEQUENCE": "ACAGTGCCGG", "SYSTEM_NAME": "ATP", "switch fluorescence ratio": 1.02}
{"MONOMER_SEQUENCE": "GGGGACCGGT", "SYSTEM_NAME": "ATP", "switch fluorescence ratio": 1.05}
{"MONOMER_SEQUENCE": "TAGGAGGGAG", "SYSTEM_NAME": "ATP", "switch fluorescence ratio": 1.02}
{"MONOMER_SEQUENCE": "TTTTTTGTT", "SYSTEM_NAME": "ATP", "switch fluorescence ratio": 0.977}
{"MONOMER_SEQUENCE": "TTCTAGTTGA", "SYSTEM_NAME": "ATP", "switch fluorescence ratio": 0.991}
{"MONOMER_SEQUENCE": "GGTTCAACAT", "SYSTEM_NAME": "ATP", "switch fluorescence ratio": 0.985}
{"MONOMER_SEQUENCE": "TTTCCGTTGG", "SYSTEM_NAME": "ATP", "switch fluorescence ratio": 1.12}
{"MONOMER_SEQUENCE": "TAAAGGTATC", "SYSTEM_NAME": "ATP", "switch fluorescence ratio": 0.998}
{"MONOMER_SEQUENCE": "TTTTACAGTA", "SYSTEM_NAME": "ATP", "switch fluorescence ratio": 1.07}
{"MONOMER_SEQUENCE": "TAGGGGGCTC", "SYSTEM_NAME": "ATP", "switch fluorescence ratio": 0.959}
{"MONOMER_SEQUENCE": "TTGAAAAAGC", "SYSTEM_NAME": "ATP", "switch fluorescence ratio": 0.975}
{"MONOMER_SEQUENCE": "TTAAAGCTTA", "SYSTEM_NAME": "ATP", "switch fluorescence ratio": 1.02}
{"MONOMER_SEQUENCE": "TTCACTTTTG", "SYSTEM_NAME": "ATP", "switch fluorescence ratio": 1.01}
{"MONOMER_SEQUENCE": "AGGTACGTGG", "SYSTEM_NAME": "ATP", "switch fluorescence ratio": 0.996}
{"MONOMER_SEQUENCE": "CGGGATATAT", "SYSTEM_NAME": "ATP", "switch fluorescence ratio": 0.994}
{"MONOMER_SEQUENCE": "CAATTTTCTG", "SYSTEM_NAME": "ATP", "switch fluorescence ratio": 0.985}
{"MONOMER_SEQUENCE": "AAGAGTGTGG", "SYSTEM_NAME": "ATP", "switch fluorescence ratio": 1.02}
{"MONOMER_SEQUENCE": "TTGTTGAGAG", "SYSTEM_NAME": "ATP", "switch fluorescence ratio": 1.02}
{"MONOMER_SEQUENCE": "CAAGCTCTGT", "SYSTEM_NAME": "ATP", "switch fluorescence ratio": 1.01}
{"MONOMER_SEQUENCE": "CATTTATATT", "SYSTEM_NAME": "ATP", "switch fluorescence ratio": 0.986}
{"MONOMER_SEQUENCE": "CCCGTTTTTG", "SYSTEM_NAME": "ATP", "switch fluorescence ratio": 0.986}
{"MONOMER_SEQUENCE": "TATAAAGTTT", "SYSTEM_NAME": "ATP", "switch fluorescence ratio": 1.01}
{"MONOMER_SEQUENCE": "TTTTAATTCC", "SYSTEM_NAME": "ATP", "switch fluorescence ratio": 1.02}
{"MONOMER_SEQUENCE": "TATTAGAGGT", "SYSTEM_NAME": "ATP", "switch fluorescence ratio": 0.997}
{"MONOMER_SEQUENCE": "GGAAGAATAG", "SYSTEM_NAME": "ATP", "switch fluorescence ratio": 1.02}
{"MONOMER_SEQUENCE": "CATATTTA", "SYSTEM_NAME": "ATP", "switch fluorescence ratio": 0.992}
{"MONOMER_SEQUENCE": "TGGGGAAACG", "SYSTEM_NAME": "ATP", "switch fluorescence ratio": 0.946}
{"MONOMER_SEQUENCE": "TAATCGTGGA", "SYSTEM_NAME": "ATP", "switch fluorescence ratio": 1.03}
{"MONOMER_SEQUENCE": "AGGGGGAGAG", "SYSTEM_NAME": "ATP", "switch fluorescence ratio": 0.969}
{"MONOMER_SEQUENCE": "TGCATGATCG", "SYSTEM_NAME": "ATP", "switch fluorescence ratio": 1.02}
{"MONOMER_SEQUENCE": "AATAGACGAA", "SYSTEM_NAME": "ATP", "switch fluorescence ratio": 1.01}
{"MONOMER_SEQUENCE": "TAGATTGTGT", "SYSTEM_NAME": "ATP", "switch fluorescence ratio": 0.998}
{"MONOMER_SEQUENCE": "TGCCAGTTCG", "SYSTEM_NAME": "ATP", "switch fluorescence ratio": 1.02}
{"MONOMER_SEQUENCE": "AGGGGAAGTG", "SYSTEM_NAME": "ATP", "switch fluorescence ratio": 0.955}
{"MONOMER_SEQUENCE": "GCGTGGGAGG", "SYSTEM_NAME": "ATP", "switch fluorescence ratio": 1.02}

Values from the supplement of paper PMC10126150
